# TESTED_ON: Full-length wild type HIV-1 integrase (SF1) (Human immunodeficiency virus type 1 group M subtype B, UniProt P04585)
# Construct: made in house; host or cells: E. coli BL21 (DE3)
# PROTOCOL_SUMMARY: Integrase strand-transfer scintillation proximity assay
# Format: biochemical
# TEST_PARAMETERS: strand transfer, 50 min at 37° C., 246 nM integrase, 50 nM host DNA; read-out: IC50
Lab note: compare IC50 with 200 nM, writing Fulfilled if less and Not fulfilled if equal or more.

Reference set, count: 5
[
  {
    "COMPOUND": "O=C(NO)c1cc2c(CNc3cccnc3)cn(Cc3ccc(F)cc3F)c2cn1",
    "ANSWER_LABEL": "Fulfilled"
  },
  {
    "COMPOUND": "COc1c(C(=O)N(C)O)ncc2c1ccn2Cc1ccc(F)cc1",
    "ANSWER_LABEL": "Not fulfilled"
  },
  {
    "COMPOUND": "CCN1CCCC1CNCc1cn(Cc2ccc(F)cc2F)c2cnc(C(=O)NO)cc12 (stereo not drawn) [Example 45]",
    "ANSWER_LABEL": "Not fulfilled"
  },
  {
    "COMPOUND": "CN(O)C(=O)c1cc2c(CN3CCNC(=O)C3)cn(Cc3ccc(F)cc3)c2cn1",
    "ANSWER_LABEL": "Fulfilled"
  },
  {
    "COMPOUND": "O=C(NO)c1cc2c(CN[C@H](CO)Cc3c[nH]c4ccccc34)cn(Cc3ccc(F)cc3F)c2cn1",
    "ANSWER_LABEL": "Not fulfilled"
  }
]

Please determine if CN(Cc1cccnc1)Cc1cn(Cc2ccc(F)cc2F)c2cnc(C(=O)NO)cc12 is below 200 nM in terms of IC50.
Fulfilled

Please determine if O=C(NO)c1cc2c(CN3CCCCC3)cn(Cc3ccc(F)cc3F)c2cn1 is below 200 nM in terms of IC50.
Fulfilled

Please determine if CN1CCCC1CCNCc1cn(Cc2ccc(F)cc2F)c2cnc(C(=O)NO)cc12 (stereo not drawn) is below 200 nM in terms of IC50.
Not fulfilled

Please determine if O=C(NO)c1cc2c(CN3CCS(=O)(=O)CC3)cn(Cc3ccc(F)cc3F)c2cn1 is below 200 nM in terms of IC50.
Fulfilled
